meta.source: patent US20110064751A1

# target_desc: T1, Murine FAP ectodomain + poly-lys-tag + his6-tag (murine, UniProt P97321 27-761)
# T1 construct: also called mu FAP
# test_details: SPR (ProteOn XPR36), purified Fab, monovalent binding
reported_property: Kd (nM)
The figure you give is taken to be in nM; do not add the unit.

Enquiry: // returns reported Kd for input 5F1 Fab (Fab, V domains shown, also called clone 5F1) VH: EVQLLESGGGLVQPGGSLRLSCAASGFTFSSYAMSWVRQAPGKGLEWVSAIISSGASTYYADSVKGRFTISRDNSKNTLYLQMNSLRAEDTAVYYCAKGWFGGFNYWGQGTLVTVSS VL: EIVLTQSPGTLSLSPGERATLSCRASQSVTSSYLAWYQQKPGQAPRLLINVGSRRATGIPDRFSGSGSGTDFTLTISRLEPEDFAVYYCQQGIMLPPTFGQGTKVEIK
Return: 4.1
